# MIC listing for each entry below
system: Acinetobacter baumannii; experiment: Antibacterial activity against Acinetobacter baumannii ARC3658 after 24 hrs by broth microdilution method; type: functional; settings: ARC3658, 24 h
Kindly provide the numeric value in µg/mL only, without the unit symbol.

1. CCNC(=O)Nc1cc(-c2nc(C(F)(F)F)cs2)c(-c2cc(-c3n[nH]c(=O)o3)cnc2N2C3CCC2CN(C)C3)cn1 1
2. C[C@@H](O)[C@H]1C(=O)N2C(C(=O)O)=C(S[C@@H]3CN[C@H](C(=O)N(C)C)C3)[C@H](C)[C@H]12 32
3. CCNC(=O)Nc1cc(-c2nc(C3CC3)cs2)c(-c2cc(-c3n[nH]c(=O)o3)cnc2N2C3CCC2CN(C)C3)cn1 1

Switching to the query record.
Suppose we examine the molecule CCNC(=O)Nc1cc(-c2nc(C(F)(F)F)cs2)c(-c2cc3ncccc3nc2N2C3CCC2CN(C)C3)cn1 ; what MIC value has been reported?
2

* * *

tested on: Acinetobacter baumannii; assay: Antibacterial activity against Acinetobacter baumannii ARC3515 after 24 hrs by broth microdilution method; assay type: functional; conditions: ARC3515, 24 h
Recorded MIC by entry
Express your answer in µg/mL, writing the number without its unit.

1) CCNC(=O)Nc1cc(-c2nc(C3CC3)cs2)c(-c2cc(-c3n[nH]c(=O)o3)cnc2N2C3CCC2CN(C)C3)cn1 2

Consider the molecule shown here: C[C@@H](O)[C@H]1C(=O)N2C(C(=O)O)=C(S[C@@H]3CN[C@H](C(=O)N(C)C)C3)[C@H](C)[C@H]12 What is its recorded MIC?
4

Param item: CCNC(=O)Nc1cc(-c2nc(C(F)(F)F)cs2)c(-c2cc(-c3n[nH]c(=O)o3)cnc2N2C3CCC2CN(C)C3)cn1
1

Now the same for CCNC(=O)Nc1cc(-c2nc(C(F)(F)F)cs2)c(-c2cc3ncccc3nc2N2C3CCC2CN(C)C3)cn1
4

* * *

test system: Acinetobacter baumannii; experiment: Antibacterial activity against Acinetobacter baumannii ARC3495 after 24 hrs by broth microdilution method; type: functional; settings: ARC3495, 24 h
MIC for assorted molecules
Return type: number; implicit unit µg/mL.

Here are 2 molecules together with their reported answers.
1) CCNC(=O)Nc1cc(-c2nc(C(F)(F)F)cs2)c(-c2cc3ncccc3nc2N2C3CCC2CN(C)C3)cn1 2
2) CCNC(=O)Nc1cc(-c2nc(C(F)(F)F)cs2)c(-c2cc(-c3n[nH]c(=O)o3)cnc2N2C3CCC2CN(C)C3)cn1 0.5

Find the recorded MIC belonging to CCNC(=O)Nc1cc(-c2nc(C3CC3)cs2)c(-c2cc(-c3n[nH]c(=O)o3)cnc2N2C3CCC2CN(C)C3)cn1 and report it.
0.5

* * *

test system: Acinetobacter baumannii; assay: Antibacterial activity against Acinetobacter baumannii ARC3489 after 24 hrs by broth microdilution method; type: functional; settings: ARC3489, 24 h
Measured Parameter: MIC (µg/mL)
Unit µg/mL implied. Number only.

1. CCNC(=O)Nc1cc(-c2nc(C(F)(F)F)cs2)c(-c2cc(-c3n[nH]c(=O)o3)cnc2N2C3CCC2CN(C)C3)cn1 1
2. CCNC(=O)Nc1cc(-c2nc(C3CC3)cs2)c(-c2cc(-c3n[nH]c(=O)o3)cnc2N2C3CCC2CN(C)C3)cn1 1
3. CCNC(=O)Nc1cc(-c2nc(C(F)(F)F)cs2)c(-c2cc3ncccc3nc2N2C3CCC2CN(C)C3)cn1 2

Reported MIC for C[C@@H](O)[C@H]1C(=O)N2C(C(=O)O)=C(S[C@@H]3CN[C@H](C(=O)N(C)C)C3)[C@H](C)[C@H]12 : what is it?
4
